# maps each entry to its pEC50
target: AMPKα1β1γ1 (Homo sapiens, UniProt Q13131+Q9Y478); assay: AMPKα1β1γ1 biochemical assay (LabChip EZ Reader mobility shift); conditions: EC50 of Table 1; activation, normalized to DMSO vehicle control; read-out: Human AMPK AMPKα1β1γ1 EC50
Sequence (Q13131 whole entry): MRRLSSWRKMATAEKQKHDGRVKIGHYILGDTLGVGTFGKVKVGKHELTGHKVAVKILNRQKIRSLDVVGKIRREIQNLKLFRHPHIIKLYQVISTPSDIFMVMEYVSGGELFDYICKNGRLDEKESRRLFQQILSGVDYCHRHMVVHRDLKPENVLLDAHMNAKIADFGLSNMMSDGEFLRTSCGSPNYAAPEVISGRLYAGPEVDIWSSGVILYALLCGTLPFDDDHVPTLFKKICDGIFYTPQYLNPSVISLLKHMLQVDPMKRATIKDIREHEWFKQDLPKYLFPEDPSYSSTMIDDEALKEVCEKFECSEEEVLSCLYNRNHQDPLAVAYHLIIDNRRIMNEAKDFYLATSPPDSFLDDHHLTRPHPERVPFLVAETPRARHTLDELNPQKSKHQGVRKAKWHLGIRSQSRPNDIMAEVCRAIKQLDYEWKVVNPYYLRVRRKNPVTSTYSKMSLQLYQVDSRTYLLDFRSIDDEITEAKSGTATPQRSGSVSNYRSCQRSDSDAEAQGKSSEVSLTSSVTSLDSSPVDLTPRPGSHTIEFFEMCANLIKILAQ
Sequence (Q9Y478 whole entry): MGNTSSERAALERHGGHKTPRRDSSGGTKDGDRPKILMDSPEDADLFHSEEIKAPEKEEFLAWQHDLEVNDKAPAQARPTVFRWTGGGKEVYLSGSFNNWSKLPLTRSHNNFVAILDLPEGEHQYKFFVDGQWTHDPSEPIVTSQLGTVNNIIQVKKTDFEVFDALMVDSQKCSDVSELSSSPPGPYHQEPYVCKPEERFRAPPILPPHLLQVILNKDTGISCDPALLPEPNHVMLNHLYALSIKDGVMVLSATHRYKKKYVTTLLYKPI
Sequence (P54619 whole entry partner): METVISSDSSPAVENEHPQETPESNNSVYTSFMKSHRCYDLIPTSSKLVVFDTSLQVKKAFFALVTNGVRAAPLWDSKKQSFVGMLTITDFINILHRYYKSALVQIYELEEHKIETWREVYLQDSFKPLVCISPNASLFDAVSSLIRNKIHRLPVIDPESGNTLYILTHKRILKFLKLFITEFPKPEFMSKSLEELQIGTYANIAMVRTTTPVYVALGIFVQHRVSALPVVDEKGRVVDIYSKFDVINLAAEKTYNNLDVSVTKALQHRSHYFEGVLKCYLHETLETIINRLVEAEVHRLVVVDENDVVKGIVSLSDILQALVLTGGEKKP
pEC50: −log10 of the molar value.

Example results:
>  <Compound>
COc1nc(N2CCC3(CCOC3)C2)ccc1-c1cc2c(C(=O)O)c[nH]c2cc1Cl (racemic) [Example 37]

>  <pEC50>
6.60 to 7.00

$$$$
>  <Compound>
COc1nc(N2C[C@H]3CCO[C@H]3C2)ccc1-c1cc2c(C(=O)O)c[nH]c2cc1Cl (racemic) [Example 28]

>  <pEC50>
≥ 7.30

$$$$

Q: Return reported pEC50; argument: COc1nc(N2CC3(CNC(=O)C3)C2)ccc1-c1cc2c(C(=O)O)c[nH]c2cc1Cl [Example 19]
Result: ≥ 7.30
